test system: MDA-MB-435; test: NCI tumour cell line growth inhibition, 48 h
Calls of active or inactive are those of the source. Rule as the data show it: active = GI50 up to about 1.1 µM and inactive = higher.
experimental_readout: GI50

GI50 value, target or system MDA-MB-435, for C[C@]12CC[C@@H]3c4ccc(O)cc4CC[C@H]3[C@@H]1CC[C@@H]2OP(=O)(O)O : > 100 µM (inactive)

GI50 value, target or system MDA-MB-435, for CC(=O)CC(OC(C)=O)C1=CCC2C(CC1C)OC(=O)C2C (stereo not given) : > 100 µM (inactive)

GI50 value, target or system MDA-MB-435, for Cc1cc2c(c(C(=O)NCC(=O)O)c1)Oc1c(cc(C)cc1C(=O)NCC(=O)O)S2 : > 100 µM (inactive)

GI50 value, target or system MDA-MB-435, for COc1cc(S(=O)(=O)Nc2nc(-c3ccc(/N=C/c4ccccc4O)cc3)cs2)ccc1Cl : 54.5 µM (inactive)

GI50 value, target or system MDA-MB-435, for Cc1ccc2ccc(O)cc2c1 : 19 µM (inactive)

GI50 value, target or system MDA-MB-435, for CNCCCNC1(c2cc3ccccc3s2)CCCCC1 : 2.55 µM (inactive)

GI50 value, target or system MDA-MB-435, for CCCN1CN(c2ccccc2)C2(CCN(CCCC(=O)c3ccc(F)cc3)CC2)C1=O : 11 µM (inactive)

GI50 value, target or system MDA-MB-435, for Cc1cc(N2CCOCC2)nc2ccc(Cc3ccc4nc(N5CCOCC5)cc(C)c4c3)cc12 : 43.3 µM (inactive)

GI50 value, target or system MDA-MB-435, for Clc1nc(NCCc2ccccc2)c2ncn(-c3ccccc3)c2n1 : 16.3 µM (inactive)

GI50 value, target or system MDA-MB-435, for N#CC(C#N)=C1SC(=N\c2ccccc2)/C(=N/c2ccccc2)N1c1ccccc1 : 10.6 µM (inactive)
